Cited source: ChEMBL document CHEMBL1123899

system: Poliovirus 1; test: Minimum inhibitory concentration required to reduce Polio virus type 1 induced cytopathogenicity by 50%; type: functional; conditions: Enterovirus C
Quick reference: MIC50 of the listed items.
Please state the figure in µg/mL; there is no need to write the unit.

-- ask I am curious: what MIC50 value has been reported for "NC(=O)c1ncn([C@@H]2O[C@H](CO)[C@@H](O)[C@H]2O)n1" ?
-- reply 20

-- ask Same thing, different compound: "NC(=O)c1cn([C@@H]2O[C@H](CO)[C@@H](O)[C@H]2O)c2ncnc(N)c12"
-- reply 0.07

-- ask Same thing, different compound: "Nc1ncnc2c1ccn2[C@@H]1O[C@H](CO)[C@@H](O)[C@H]1O"
-- reply 0.02

-- ask Same thing, different compound: Nc1ncnc2c1ccn2C1OC(CO)CC1O (stereo not given)
-- reply 2
